B1: SASS6 (parent)
chain: QKELQDVGQSLRIKEQEVCKLQEQ

- Variants of: B1
- assay-details: protein stability index of a GFP-peptide fusion (GPS, HEK-293T) (PSI 1-6); higher = more stable;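 note: lentivirally expressed fusions sorted by FACS into six bins by GFP to DsRed ratio, PSI derived from sequencing read proportions per bin multiplied by bin number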
- condition-info: c terminus: a fixed tail appended
Measured protein stability index of individual entries
Number, no unit, nothing else.

Use these answered entries as a reference point.
{"mutation-key": "K20P", "protein stability index": 4.98}
{"mutation-key": "V18G", "protein stability index": 4.49}
{"mutation-key": "Q5Y", "protein stability index": 4.32}
{"mutation-key": "Q5L", "protein stability index": 2.94}
{"mutation-key": "E15V", "protein stability index": 3.54}

Look up protein stability index for this variant: `E17D`
5.55

Look up protein stability index for this variant: `Q9K`
5.3

Look up protein stability index for this variant: `E15N`
3.15

Look up protein stability index for this variant: `Q24C`
5

Look up protein stability index for this variant: `Q9F`
4.13

Look up protein stability index for this variant: `E3T`
5.08

Look up protein stability index for this variant: `K2G`
4.65

Look up protein stability index for this variant: `G8S`
5

Look up protein stability index for this variant: `K20H`
4.49

Look up protein stability index for this variant: `R12D`
4.03
